- molecule: "COc1cc2c(Nc3ccc4cn[nH]c4c3)c(C#N)cnc2cc1OCCN1CCSCC1"
  melting point: "213 to 215 °C"
- molecule: "Cc1ccc(-c2nc(CO[C@H]3CCC[C@@H](C(=O)N[C@H](C(=O)O)C(C)C)C3)c(C)o2)cc1"
  melting point: "195 to 196 °C"
- molecule: "N[C@@H](CC1CCCCC1)[C@@H](O)[C@@H]1CCCS1"
  melting point: "58 to 59 °C"
- molecule: "Cc1nc(Sc2ccccc2)sc1C(=O)O"
  melting point: "187 to 188 °C"
- molecule: "CCC1(O)c2cc3n(c(=O)c2COC1O)Cc1cc2ccccc2nc1-3 (stereo unspecified)"
  melting point: "280 °C"
- molecule: "COc1cc(C(=O)C=Cc2ccc(Br)cc2)ccc1OC1CCCCO1 (stereo unspecified)"
  melting point: "142 to 145 °C"
